Biological target: T1, human C1s (human, UniProt P09871 16-688)
T1 construct: Analyte in the Biacore assays; also called hC1s; serum-derived human C1s (CompTech)
T1 sequence: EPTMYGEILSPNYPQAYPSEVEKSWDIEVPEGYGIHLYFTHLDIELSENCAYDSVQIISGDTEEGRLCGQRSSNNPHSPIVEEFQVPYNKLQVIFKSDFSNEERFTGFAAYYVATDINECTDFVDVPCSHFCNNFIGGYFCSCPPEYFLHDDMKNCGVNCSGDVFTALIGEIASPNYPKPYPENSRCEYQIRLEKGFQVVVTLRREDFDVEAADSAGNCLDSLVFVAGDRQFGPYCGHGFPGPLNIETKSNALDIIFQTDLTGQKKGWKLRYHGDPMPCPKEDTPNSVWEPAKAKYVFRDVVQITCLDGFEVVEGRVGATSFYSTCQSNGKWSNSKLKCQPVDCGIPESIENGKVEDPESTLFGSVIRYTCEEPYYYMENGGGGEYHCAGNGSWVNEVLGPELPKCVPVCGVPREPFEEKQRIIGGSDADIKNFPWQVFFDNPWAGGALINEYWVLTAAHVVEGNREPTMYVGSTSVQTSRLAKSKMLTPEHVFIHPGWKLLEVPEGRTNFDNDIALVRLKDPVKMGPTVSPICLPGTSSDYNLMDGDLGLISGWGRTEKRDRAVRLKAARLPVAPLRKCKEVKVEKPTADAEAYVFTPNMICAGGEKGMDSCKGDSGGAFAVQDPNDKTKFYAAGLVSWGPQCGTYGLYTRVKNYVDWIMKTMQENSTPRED
Experiment: SPR (Biacore T200, 37C), Ab captured on protein A/G; pH 5.8, 3 uM Ca
readoutName: kon
Please answer using the number first and the unit second.

>>> reportedvalue("C1_IPN92H0166-SG4GK/IPN93L0024-SK1 (antibody, human IgG4 S228P, kappa, name in Kabat numbering, V domains shown, Substitutions from IPN009VH2, Kabat numbering; also called IPN92H0166/IPN93L0024) VH: EVMLVESGGGLVKPGGSLRLSCAASGFTFSNYAMSWVRQAPGKGLEWVATISSGGSHTYYEDSVKGRFTISRDNSKDTLYLQMNSLRAEDTALYYCARLFTGHAMDYWGQGTLVTVSS VL: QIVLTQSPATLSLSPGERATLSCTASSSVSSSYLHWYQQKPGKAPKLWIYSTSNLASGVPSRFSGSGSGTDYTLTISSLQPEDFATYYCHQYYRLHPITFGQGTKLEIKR")
"1.02e+08 M⁻¹ s⁻¹"

Read the next record carefully.
[in] Endpoint output: kon of C1_IPN92H0160-SG4GK/IPN93L0024-SK1 (antibody, human IgG4 S228P, kappa, name in Kabat numbering, V domains shown, Substitutions from IPN009VH2, Kabat numbering; also called IPN92H0160/IPN93L0024) VH: EVMLVESGGGLVKPGGSLRLSCAASGFTFSNYAMSWVRQAPGKGLEWVATISSGGSHTYELDSVKGRFTISRDNSKDTLYLQMNSLRAEDTALYYCARLFTGHAMDYWGQGTLVTVSS VL: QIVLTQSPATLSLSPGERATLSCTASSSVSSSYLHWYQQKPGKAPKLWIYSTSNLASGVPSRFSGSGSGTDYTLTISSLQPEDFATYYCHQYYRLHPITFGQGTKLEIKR . Value?
[out] 562000 M⁻¹ s⁻¹
